target: DUB activity in cells (NCI-H929, Z138, MM.1S, A375) (Homo sapiens, UniProt Q93008); construct: endogenous in cells; host or cells: NCI-H929, Z138, MM.1S, A375; experiment: HA-Ubiquitin-Vinylsulfone (HA-Ub-VS) cell labeling assay; format: cell-based; conditions: compound tested at 5 μM; HA-Ub-VS labeling of USP9x in cells
Sequence (Q93008 whole entry): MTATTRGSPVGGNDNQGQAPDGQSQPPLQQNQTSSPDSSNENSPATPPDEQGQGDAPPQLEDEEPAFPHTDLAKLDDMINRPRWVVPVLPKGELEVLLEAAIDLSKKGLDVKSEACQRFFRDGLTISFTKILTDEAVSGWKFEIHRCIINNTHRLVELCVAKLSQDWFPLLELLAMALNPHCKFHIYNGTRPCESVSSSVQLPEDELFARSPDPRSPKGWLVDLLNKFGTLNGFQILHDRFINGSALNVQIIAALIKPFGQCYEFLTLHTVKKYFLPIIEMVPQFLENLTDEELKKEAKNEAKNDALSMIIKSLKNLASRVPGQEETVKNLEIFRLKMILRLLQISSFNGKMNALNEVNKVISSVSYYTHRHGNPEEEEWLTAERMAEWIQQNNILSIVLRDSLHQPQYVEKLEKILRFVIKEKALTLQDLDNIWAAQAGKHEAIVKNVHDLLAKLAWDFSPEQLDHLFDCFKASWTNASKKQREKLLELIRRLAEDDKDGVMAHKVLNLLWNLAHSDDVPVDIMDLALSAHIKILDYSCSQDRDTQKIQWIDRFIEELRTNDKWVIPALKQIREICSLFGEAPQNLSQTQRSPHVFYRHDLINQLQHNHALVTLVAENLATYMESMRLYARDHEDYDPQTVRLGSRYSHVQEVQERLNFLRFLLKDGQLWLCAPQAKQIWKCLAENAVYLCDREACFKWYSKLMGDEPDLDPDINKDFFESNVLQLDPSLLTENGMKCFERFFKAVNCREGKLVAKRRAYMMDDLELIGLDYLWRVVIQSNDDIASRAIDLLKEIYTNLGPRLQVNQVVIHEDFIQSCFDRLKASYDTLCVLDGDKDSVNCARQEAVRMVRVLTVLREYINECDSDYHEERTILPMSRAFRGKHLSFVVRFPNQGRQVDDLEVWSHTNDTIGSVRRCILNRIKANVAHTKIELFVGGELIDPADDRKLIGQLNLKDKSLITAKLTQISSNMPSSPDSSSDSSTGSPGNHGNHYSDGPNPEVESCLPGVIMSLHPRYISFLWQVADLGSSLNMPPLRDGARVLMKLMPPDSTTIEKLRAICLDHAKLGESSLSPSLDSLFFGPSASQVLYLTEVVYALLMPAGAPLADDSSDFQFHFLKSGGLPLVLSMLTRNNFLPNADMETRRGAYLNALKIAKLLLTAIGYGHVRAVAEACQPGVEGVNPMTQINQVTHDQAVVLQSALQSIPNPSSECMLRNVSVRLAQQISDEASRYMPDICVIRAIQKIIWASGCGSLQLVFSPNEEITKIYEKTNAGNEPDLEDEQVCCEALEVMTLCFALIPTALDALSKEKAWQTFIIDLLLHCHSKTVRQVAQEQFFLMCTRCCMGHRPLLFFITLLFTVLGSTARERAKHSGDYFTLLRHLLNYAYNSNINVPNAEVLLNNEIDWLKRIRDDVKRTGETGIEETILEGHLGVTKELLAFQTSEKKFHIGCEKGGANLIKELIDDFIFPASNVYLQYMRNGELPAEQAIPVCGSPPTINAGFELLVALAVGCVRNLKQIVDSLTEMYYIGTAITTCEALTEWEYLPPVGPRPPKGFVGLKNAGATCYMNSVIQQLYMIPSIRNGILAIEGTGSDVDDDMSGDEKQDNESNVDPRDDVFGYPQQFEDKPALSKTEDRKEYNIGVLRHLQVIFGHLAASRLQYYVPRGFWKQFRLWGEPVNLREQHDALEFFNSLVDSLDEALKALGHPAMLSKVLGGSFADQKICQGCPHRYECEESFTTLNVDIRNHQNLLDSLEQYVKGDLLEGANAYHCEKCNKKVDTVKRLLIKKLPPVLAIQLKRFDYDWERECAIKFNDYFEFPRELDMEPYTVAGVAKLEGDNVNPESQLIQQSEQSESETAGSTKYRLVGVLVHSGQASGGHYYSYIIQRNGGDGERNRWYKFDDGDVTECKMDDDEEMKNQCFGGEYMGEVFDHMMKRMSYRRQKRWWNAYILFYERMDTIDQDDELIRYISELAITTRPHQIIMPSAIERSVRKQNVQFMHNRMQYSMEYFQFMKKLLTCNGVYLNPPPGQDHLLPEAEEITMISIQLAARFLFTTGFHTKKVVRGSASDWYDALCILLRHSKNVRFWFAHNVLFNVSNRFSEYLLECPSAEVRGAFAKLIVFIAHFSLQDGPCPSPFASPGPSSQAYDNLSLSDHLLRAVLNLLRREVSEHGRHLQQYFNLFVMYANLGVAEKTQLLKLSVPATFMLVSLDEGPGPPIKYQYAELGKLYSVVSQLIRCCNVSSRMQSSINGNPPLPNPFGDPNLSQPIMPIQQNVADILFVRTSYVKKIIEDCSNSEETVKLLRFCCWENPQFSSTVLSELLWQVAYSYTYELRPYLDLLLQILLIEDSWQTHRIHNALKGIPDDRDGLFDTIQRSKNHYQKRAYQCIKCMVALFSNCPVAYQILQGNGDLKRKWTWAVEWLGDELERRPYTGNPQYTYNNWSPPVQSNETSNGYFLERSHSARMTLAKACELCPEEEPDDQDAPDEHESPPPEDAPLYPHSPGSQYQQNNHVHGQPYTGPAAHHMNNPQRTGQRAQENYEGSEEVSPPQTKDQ
Here the recorded inhibition at 5 µM is given for each entry.

Exercise: Consider the compound shown here: COc1ccc(/C=C(\C#N)C(=O)NC2(c3ccccc3)CCCC2)cc1O [Compound 14] What is its recorded inhibition at 5 µM?
Solution: < 25%

Exercise: Same lookup for N#C/C(=C\c1cccc(Br)n1)C(=O)NC1(c2ccc(-c3ccc4[nH]ccc4c3)cc2)CCCC1 [Compound 96] , please.
Solution: 50 to 75%

Exercise: Repeat with N#C/C(=C\c1nc(Cl)ccc1Cl)C(=O)NC1(c2ccccc2)CCCC1 [Compound 7]
Solution: 50 to 75%

Exercise: And CCOC(=O)c1cccc(-c2cccc(/C=C(\C#N)C(=O)NC3(c4ccccc4)CCCC3)n2)c1F [Compound 60] ?
Solution: 50 to 75%

Exercise: And the next one, N#C/C(=C\c1ncc(Br)cc1Br)C(=O)NC1(c2ccc(-c3ccc(N4CCOCC4)nc3)cc2)CCCC1 [Compound 51] ?
Solution: 25 to 50%

Exercise: Now try N#C/C(=C\c1cccc(Br)n1)C(=O)NC1(c2ccc(C#CCNCCO)cc2)CCCC1 [Compound 78] .
Solution: 50 to 75%

Exercise: What do you have for N#C/C(=C\c1ncc(Cl)cc1F)C(=O)NC1(c2ccccc2)CCCC1 [Compound 5] ?
Solution: ≥ 75%
